Numbers sourced from PubChem BioAssay (NCI).

# Tested on: U251 CNS
# measurement-protocol: NCI tumour cell line growth inhibition, 48 h
Reported values of TGI for individual entries

Take a look at these entries with their results.
compound	system-tested	metric-name	reported
O=c1oc2c(ccc3c(O)cccc32)c2c1CCCC2	U251 CNS	TGI	55.9 µM
Cc1ccccc1NC(=O)c1cc2ccccc2cc1O	U251 CNS	TGI	> 100 µM
CC(Cc1ccc2c(c1)OCO2)N(C)C(=O)C1=CCN(C)CC1 (stereo unspecified)	U251 CNS	TGI	> 100 µM
CCN1C(=O)CS/C1=N\NC(=O)CSc1nc2ccccc2c(=O)n1CC	U251 CNS	TGI	> 100 µM
CNC(=O)c1cncc(/C=C/c2c(Cl)cccc2Cl)c1	U251 CNS	TGI	> 25 µM

// below: TGI requested for another compound
Entry COc1cc2nc(N3CCC[C@@H](NC4=CC(=O)c5ccccc5C4=O)C3)nc(N)c2cc1OC , system U251 CNS: what TGI was measured?
3.46 µM

###

Reported values of TGI for individual entries
# Tested on: NCI/ADR-RES ovarian
# measurement-protocol: NCI tumour cell line growth inhibition, 48 h

compound	TGI
Cc1cc(C#N)c(Nc2ccccc2[N+](=O)[O-])s1	53 µM
O=C(Cn1c2ccccc2c2ccncc21)N/N=C\c1ccc2ccccc2c1	> 100 µM
COC(=O)C1=NN2c3ccccc3CN([C@@H](C)c3ccccc3)C(=O)[C@H]2[C@@H]1C	> 100 µM
COc1ccccc1N1C(=O)CC(=O)N(C(=O)CCCCCCCCC(=O)N2C(=O)CC(=O)N(c3ccccc3OC)C2=S)C1=S	> 100 µM
CCOC(=O)Oc1ccc2c(c1)c(=O)c1c(NCCCN(CC)CC)ccc3nnn2c31	28.1 µM
CSc1nc(-c2ccc(Cl)cc2)c(C#N)c(=O)[nH]1	> 100 µM

Entry O=C(O)CCc1nc2cc3ccccc3cc2[nH]c1=O , system NCI/ADR-RES ovarian: what TGI was measured?
> 100 µM

###

Reported values of TGI for individual entries
# Tested on: TK-10 renal
# measurement-protocol: NCI tumour cell line growth inhibition, 48 h

compound	system-tested	TGI
CC#Cc1c(C#CC)c(OC)c2c(c1OC)C(=O)c1ccccc1C2=O	TK-10 renal	> 100 µM
CN(C)N=Nc1nn(C(=O)Nc2ccc(Cc3ccccc3)cc2)c2ccccc12	TK-10 renal	> 100 µM
O=C1C(NS(=O)(=O)c2ccccc2)=C(N(Cc2ccccc2)Cc2ccccc2)C(=O)c2ccccc21	TK-10 renal	> 100 µM

// lookup TGI for CCOC(=O)/C(=N/Nc1ccc(Cl)cc1)N1C(=S)C=C(C)NN(C)C1=S
> 100 µM

// lookup TGI for COC(=O)c1nc(N)nc(C(=O)OC)c1C(=O)c1ccccc1
> 100 µM

// lookup TGI for CCCN(CCC)C(=O)c1c(Cl)c2cccnc2n2c(C)cnc12
> 100 µM

// lookup TGI for Cc1c(C(N)=O)sc2c1c(=O)n(Cc1ccccc1)c1nnc(S(=O)(=O)CC(=O)Nc3ccc(Cl)cc3)n21
19.2 µM

// lookup TGI for COc1nc(OC)nc(Sc2ccc(Sc3ccc(Sc4nc(OC)nc(OC)n4)cc3)cc2)n1
> 100 µM

// lookup TGI for COC(=O)CCC(C)[C@H]1CCC2C3C(C[C@H](OC(C)=O)[C@@]21C)[C@@]1(C)CCC2(C[C@H]1C[C@H]3OC(C)=O)OOC1(CCCCC1)OO2 (some centres undefined)
> 100 µM
